From: ChEMBL document CHEMBL1201862

System: RXF 393
assay_details: NCI tumour cell line growth inhibition, 48 h
Calls of active or inactive are those of the source. Cut-off read from the data, not from the text of the source: active = GI50 up to about 1.1 µM and inactive = higher.
The categories you may choose from are true (1) (active), false (0) (inactive)

See these solved cases before continuing.
* C1CNCCNCCNCCN1 | false (0)
* CCC/N=C/c1c(O)c(O)c(C(C)C)c2cc(C)c(-c3c(C)cc4c(C(C)C)c(O)c(O)c(/C=N/CCC)c4c3O)c(O)c12 | false (0)
* CCc1nc(N)nc(N)c1-c1ccc(Cc2ccccc2)c([N+](=O)[O-])c1 | false (0)
* COC(=O)C(=O)C(CC(=O)Nc1cccc(C(F)(F)F)c1)C(=O)OC (stereo not given) | false (0)

Here is another compound to look at.
[in] Hi, sorry to bother you, what did the test record for CCCC(=O)Nc1cc(/C=C/C(=O)N2CC(CCl)c3c2cc(O)c2[nH]cc(C)c32)n(C)c1 (stereo not given) ?
[out] true (1)

* * *

Collected GI50 values appear next to each entry.
System: SW-620
assay_details: NCI tumour cell line growth inhibition, 48 h
The source made the active and inactive calls. Rule as the data show it: active = GI50 up to about 1.1 µM and inactive = higher.

• C1CNCCNCCNCCN1 = 52.2 µM (inactive)

[in] Query (compound): COC(=O)C(C#CCCCCC#CC(NC(=O)OCc1ccccc1)(C(=O)OC)C(F)(F)F)(NC(=O)OCc1ccccc1)C(F)(F)F (stereo not given) ; field requested: GI50
[out] > 100 µM (inactive)

* * *

Test system: SK-MEL-28
assay_details: NCI tumour cell line growth inhibition, 48 h
The source made the active and inactive calls. No stated cut-off is given here; in the data, active = GI50 up to about 1.1 µM and inactive = higher.
quantity_name: GI50

Study these solved cases before continuing.
- CCCCCCC(CCl)c1sc(-c2csc(CCNC(=O)OC(C)(C)C)n2)nc1C(=O)OC (stereo unspecified): 28.6 µM (inactive)
- COc1ccc(-n2sc3ncc(-c4ccccc4)cc3c2=O)cc1: 37 µM (inactive)
- CC1CCC(C(=O)O)(C(Br)C(=O)O)CC1 (stereo unspecified): > 100 µM (inactive)
- CC(=O)Nc1ccc2oc(=O)c3ccccc3c2c1: > 100 µM (inactive)
- C[C@@H](c1ccccc1)N1C[C@@H](c2ccc3c(c2)OCO3)[C@@H]2C(=O)CCC[C@@H]21: 28.6 µM (inactive)
- Nc1cccc2cc(Cl)cnc12: > 100 µM (inactive)
- O=C1c2ccccc2C(=O)N1CCc1ncc[nH]1: > 100 µM (inactive)
- C[N+](C)(C)C1(C(=O)[O-])CC1: > 100 µM (inactive)

[in] Query (compound): O=c1[nH]nc(Cc2ccccc2)n1N=C1CCCCC1 ; field requested: GI50
[out] > 100 µM (inactive)

[in] Query (compound): CN(C)CC(C)(C)C(=O)/C=C/c1ccc(/C=C/C(=O)C(C)(C)CN(C)C)cc1 ; field requested: GI50
[out] 1.87 µM (inactive)

[in] Query (compound): CO/N=C(\C(=O)Nn1cn[n+](CC(=O)[O-])c1)c1csc(N)n1 ; field requested: GI50
[out] > 10 µM (inactive)

* * *

Collected GI50 values appear next to each entry.
Tested on: SNB-78
assay_details: NCI tumour cell line growth inhibition, 48 h
The source made the active and inactive calls. Cut-off read from the data, not from the text of the source: active = GI50 up to about 1.1 µM and inactive = higher.

Study these solved cases before continuing.
• C/C(=N\N(C)C)C(CN(C)C)C(c1ccccc1)c1c(O)c2ccccc2oc1=O (stereo unspecified) = > 100 µM (inactive)
• c1ccc2c(CNCCCN3CCN(CCCNCc4cccc5ccccc45)CC3)cccc2c1 = 2.21 µM (inactive)
• CC[C@]12C=CCN3CC[C@@]4(c5ccc(OC)cc5N(C)[C@H]4[C@@](O)(C(=O)OC)[C@@H]1OC(C)=O)[C@@H]32 = 195 µM (inactive)
• Cc1ccccc1/C=N/C12CC3CC(CC(C3)C1)C2 = > 100 µM (inactive)
• COc1ccc(/C(Cl)=C(\C=O)c2ccc([N+](=O)[O-])cc2)cc1OC = 4.3 µM (inactive)

[in] Query (compound): COc1ccc(NC(=S)NNC(=O)c2nsc3ccccc23)cc1 ; field requested: GI50
[out] 41.7 µM (inactive)

[in] Query (compound): COc1ccc2c(C(=O)O)cc3cc(OC)c(OC)cc3c2c1 ; field requested: GI50
[out] > 100 µM (inactive)

* * *

Tested on: MDA-N
assay_details: NCI tumour cell line growth inhibition, 48 h
Activity calls are given as the source filed them. No stated cut-off is given here; in the data, active = GI50 up to about 1.1 µM and inactive = higher. Non-standard residues stand in square brackets, D forms with d. Residues, ends and D or L forms follow the SMILES beside them. ξ: configuration not given here. *: point of attachment. ξF = NC(Cc1ccccc1)C(=O)O; Cbz = O=C(OCc1ccccc1)*
The categories you may choose from are active, inactive

* COc1ccc(/N=C/C=C/Nc2ccc(OC)cc2)cc1 | inactive
* CCC/N=C/c1c(O)c(O)c(C(C)C)c2cc(C)c(-c3c(C)cc4c(C(C)C)c(O)c(O)c(/C=N/CCC)c4c3O)c(O)c12 | inactive
* Cc1c(NC(=O)CCl)c(=O)oc2c(C)c3occc(=O)c3cc12 | inactive
* CN(C)/C=N/n1c2ccccc2c2ccccc21 | inactive
* CCOC(=O)CNC(=O)C(Cc1ccccc1)NC(=O)OCc1ccccc1 (stereo not given) (Cbz-[ξF]-Gly-OEt) | inactive

[in] Hi, sorry to bother you, what did the test record for NC(=O)NOCC1NC(=O)NC1=O (stereo not given) ?
[out] inactive

[in] Hi, sorry to bother you, what did the test record for O=c1cc(-c2ccc(O)cc2)n(C2CC2)c2ccccc12 ?
[out] inactive

* * *

Collected GI50 values appear next to each entry.
Test system: SF-539
assay_details: NCI tumour cell line growth inhibition, 48 h
Active and inactive are the calls of the source. Rule as the data show it: active = GI50 up to about 1.1 µM and inactive = higher. Where a SMILES comes first, the peptide text is derived from it. The star is where a group is joined. Boc = CC(C)(C)OC(=O)*

Study these solved cases before continuing.
* CCOC(=O)c1nc2ccc(C(F)(F)F)cc2nc1Nc1ccc(OC)cc1 | 33 µM (inactive)
* [O-][n+]1onc2c1/C(=N/O)CCC2 | > 100 µM (inactive)
* Nc1nc(NNc2ccccc2F)cc(=O)[nH]1 | > 100 µM (inactive)

[in] Query (compound): Cc1cc(C)c(OC(=O)Nc2cccc3ccccc23)c(-c2ccccc2)c1 ; field requested: GI50
[out] 57 µM (inactive)

[in] Query (compound): COc1ccc2ccc([Se]c3ccc4ccc(OC)cc4c3)cc2c1 ; field requested: GI50
[out] > 100 µM (inactive)

[in] Query (compound): CC(C)(C)OC(=O)NC(Cc1ccc(O)cc1)C(=O)N1CCCC1C(=O)O (stereo not drawn) (Boc-Tyr-Pro-OH; configuration not given here) ; field requested: GI50
[out] > 100 µM (inactive)

* * *

Test system: CCRF-CEM
assay_details: NCI tumour cell line growth inhibition, 48 h
Activity calls are given as the source filed them. Rule as the data show it: active = GI50 up to about 1.1 µM and inactive = higher.
Collected GI50 values appear next to each entry.

[in] Hello, I am looking for reported GI50 with CCRF-CEM for COc1ccc2nc(-c3ccccc3)c(=O)[nH]c2c1 . Could you help?
[out] > 100 µM (inactive)

[in] Hello, I am looking for reported GI50 with CCRF-CEM for CCCCc1cc2c(cc1O)CCC1C2CC[C@@]2(C)C1CC[C@@H]2O (some centres not stated) . Could you help?
[out] 21.5 µM (inactive)

* * *

Tested on: SF-268
assay_details: NCI tumour cell line growth inhibition, 48 h
Activity calls are given as the source filed them. No stated cut-off is given here; in the data, active = GI50 up to about 1.1 µM and inactive = higher.
Collected GI50 values appear next to each entry.

Study these solved cases before continuing.
* Cn1c(=O)oc2cc(C(O)CN3CCN(Cc4ccc5c(c4)OCO5)CC3)ccc21 (configuration not stated) | > 100 µM (inactive)
* Nc1ncnc2c1nnn2C1OC(CO)C(O)C1O (configuration not stated) | 6.3 µM (inactive)
* [N-]=[N+]=CC(=O)CCC(N)C(=O)O (configuration not stated) | 1.25 µM (inactive)
* O=C1NC2OC(CO)C(O)C(O)C2O1 (configuration not stated) | > 100 µM (inactive)
* COC(=O)c1cc2c(cc1Cl)Sc1nnc(Nc3ccccc3)n1S2(=O)=O | 2.26 µM (inactive)
* CCSCN(C)c1nc(N(C)C)nc(N(C)C)n1 | > 100 µM (inactive)

[in] Query (compound): COC(=O)Cc1cc(=O)[nH]c2c1C(=O)CCC2 ; field requested: GI50
[out] > 100 µM (inactive)

* * *

Tested on: SR
assay_details: NCI tumour cell line growth inhibition, 48 h
Active and inactive are the calls of the source. Rule as the data show it: active = GI50 up to about 1.1 µM and inactive = higher.
The categories you may choose from are YES (active), NO (inactive)

* CC(C)(O)CCc1ccc(O)c2c(=O)c3c(O)c4c(cc3oc12)O[C@H]1OC=C[C@@]41O | NO
* COC1CCC(CO)OO1 (stereo not given) | NO
* COc1ccccc1/C=C/c1c(N)ncnc1Nc1cccc(Cl)c1 | YES
* C[C@@H](c1ccccc1)N1C[C@@H](c2ccc3c(c2)OCO3)[C@@H]2C(=O)CCC[C@@H]21 | NO
* Nc1nc(SCc2ccccc2Cl)c2ncn(C3OC(CO)C(O)C3O)c2n1 (stereo not given) | NO
* Cc1cc(O)c2c3c(ccc2c1)C(=O)c1c(O)cccc1C3=O | NO
* COC(=O)[C@@]12C(=O)CCC(=O)C1C1C(=CC2C)O[C@@H]2OC3(CCCCC3)O[C@H]12 (stereo not given in full) | NO
* c1ccc2c(CNCCCN3CCN(CCCNCc4cccc5ccccc45)CC3)cccc2c1 | YES

[in] Hi, sorry to bother you, what did the test record for CCCCn1c2ccccc2c2ccc3c(c21)C(=O)C=CC3=O ?
[out] NO

[in] Hi, sorry to bother you, what did the test record for CCC/N=C/c1c(O)c(O)c(C(C)C)c2cc(C)c(-c3c(C)cc4c(C(C)C)c(O)c(O)c(/C=N/CCC)c4c3O)c(O)c12 ?
[out] NO
